Test system: colorectal cancer cell line HT-29
Test: Cancer cell proliferation inhibitory activity evaluation 1 (CCK-8), HT-29
Assay type: cell-based
Details: Homo sapiens, HT-29; 10 μM, 72 hours, CCK-8; read-out: Cancer cell proliferation inhibitory activity HT29
Below: a set of entries, each annotated with reported inhibition at 10 µM.
result_type: inhibition at 10 µM

INSERT INTO assay_data (mol, result) VALUES
  ('Cc1cc(-c2nc3c(Nc4cccc(S(N)(=O)=O)c4)c(Br)cnc3[nH]2)c(C)n1-c1cc(Cl)ccc1Cl', '> 50%'),
  ('Cc1cc(-c2nc3c(Nc4cccc(S(N)(=O)=O)c4)c(Br)cnc3[nH]2)c(C)n1-c1cccc(N2CCOCC2)c1', '> 50%'),
  ('Cc1cc(-c2nc3c(Nc4cccc(S(N)(=O)=O)c4)c(Br)cnc3[nH]2)c(C)n1-c1c(Cl)cccc1Cl', '10 to 50%'),
  ('Cc1cc(-c2nc3c(Nc4cccc(S(N)(=O)=O)c4)c(Br)cnc3[nH]2)c(C)n1-c1ccccc1Cl', '> 50%');
